Taken from patent US20150322137A1.

- system under test: F protein of human metapneumovirus strain JPS03-180 (type A1), on infectious virus (human metapneumovirus, strain JPS03-180 …)
- method description: cell-based or functional assay
Documented IC60, neutralizing activity (hMPV infection of LLC-MK2 cells; GraphPad Prism 6) across a set of binders
result type: IC60, neutralizing activity (hMPV infection of LLC-MK2 cells; GraphPad Prism 6) (µg/mL)

>  <binder>
EV046142 (antibody, human IgG1, lambda, V domains shown) VH: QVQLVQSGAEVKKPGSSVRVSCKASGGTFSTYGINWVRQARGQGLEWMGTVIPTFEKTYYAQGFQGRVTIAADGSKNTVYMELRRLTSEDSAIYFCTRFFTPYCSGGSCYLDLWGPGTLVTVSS VL: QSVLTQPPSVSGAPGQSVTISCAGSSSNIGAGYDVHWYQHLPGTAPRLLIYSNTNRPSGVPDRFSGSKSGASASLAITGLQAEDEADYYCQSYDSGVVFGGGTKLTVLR

>  <assay value>
0.243

$$$$
>  <binder>
EV046150 (antibody, human IgG1, kappa, V domains shown) VH: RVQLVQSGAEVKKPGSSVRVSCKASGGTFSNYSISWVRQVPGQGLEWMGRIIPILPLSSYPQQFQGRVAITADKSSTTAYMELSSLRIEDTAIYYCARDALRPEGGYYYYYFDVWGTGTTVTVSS VL: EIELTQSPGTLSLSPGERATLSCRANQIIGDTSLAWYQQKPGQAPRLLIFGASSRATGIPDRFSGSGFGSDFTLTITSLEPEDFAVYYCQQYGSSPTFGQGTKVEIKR

>  <assay value>
0.0823

$$$$
